Provenance of the data: patent US20190300882A1

Tested on: KELLY cells
assayComment: Primary miRNA mimic screen in combination with low dose IC30 of vincristine or doxorubicin, cell viability
Assay type: cell-based
statedConditions: miRNA mimic 25 nM + low dose IC30 vincristine
A collection of substances and their measured Primary screen Viability (% of control) Kelly VCR

These recorded examples may help you get a feel for the data.
hsa-miR-3181 (AUCGGGCCCUCGGCGCCGG; chemistry not given here; listed as Homo sapiens) :: 57 % of control
hsa-miR-515-3p (guide GAGUGCCUUCUUUUGGAGCGUU; chemistry not given here; listed as Homo sapiens) :: 56 % of control
hsa-miR-99b-5p (guide CACCCGUAGAACCGACCUUGCG; chemistry not given here; listed as Homo sapiens) :: 49 % of control
hsa-miR-1321 (CAGGGAGGUGAAUGUGAU; chemistry not given here; listed as Homo sapiens) :: 18 % of control

IN: Annotate the substance hsa-miR-100-5p (AACCCGUAGAUCCGAACUUGUG; chemistry not given here; listed as Homo sapiens) with its measured Primary screen Viability (% of control) Kelly VCR.
OUT: 48 % of control

IN: Annotate the substance hsa-miR-3924 (AUAUGUAUAUGUGACUGCUACU; chemistry not given here; listed as Homo sapiens) with its measured Primary screen Viability (% of control) Kelly VCR.
OUT: 40 % of control

IN: Annotate the substance hsa-miR-449a (guide UGGCAGUGUAUUGUUAGCUGGU; chemistry not given here; listed as Homo sapiens) with its measured Primary screen Viability (% of control) Kelly VCR.
OUT: 22 % of control
